All values here come from PubChem BioAssay (NCI).

A collection of molecules and their measured growth inhibition
assay: NCI Yeast Anticancer Drug Screen. Data for the cln2 rad14 strain (AID 165);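 further: 0% = growth equal to vehicle treated cultures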; conditions: S. cerevisiae cln2 rad14 strain, at 50.0 µM, stronger effect = higher value
About 79,000 compounds went through this panel and 15% of them were active in at least one assay; those are over-represented in the sample as a whole.
Only the number, expressed in %, is required.

Solved cases below.
COC1=NO[C@@H]2C=CO[C@H]12; -18.4
Cc1ccc(-c2c(N)nc(NC#N)nc2CCC(=O)Nc2ccccc2[N+](=O)[O-])cc1; 5.5
O=C(c1ccncc1)c1c(Cc2ccccc2)ccc2ccccc12; -4
C[C@H](OCc1ccccc1)C(=O)N1CCS(=O)(=O)N2CCC[C@@H]2C1=O; 19.4
O=C1CCC(=O)N1Cl; -13.3

// sample CC(C)CC(Br)C(=O)NCC(=O)NCC(=O)O (centres undefined) , its growth inhibition was 7.95

// sample COc1ccc(/C=N/Nc2nc3ccccc3c(=O)n2-c2ccccc2)cc1 , its growth inhibition was -29.2

// sample Cc1cc(Br)cc(C)c1NC(=O)C(=O)C(C(=O)c1ccncc1)C1OC(=O)c2ccccc21 (centres undefined) , its growth inhibition was 15.8

// sample O=C(O)C1=CN=C(C(=O)O)NN1 , its growth inhibition was 19.5

// sample O=C1/C(=C/c2ccccc2)SC(=S)N1C1c2ccccc2Oc2ccccc21 , its growth inhibition was 38.8

---

test: NCI Yeast Anticancer Drug Screen. Data for the mlh1 rad18 strain (AID 175); conditions: S. cerevisiae mlh1 rad18 strain growth inhibition; at 50.0 µM; stronger effect = higher value
About 79,000 compounds went through this panel and 15% of them were active in at least one assay; those are over-represented in the sample as a whole.
A collection of molecules and their measured growth inhibition
Only the number, expressed in %, is required.

Nc1ccc2ccccc2c1[N+](=O)[O-]; 39.3

// sample COc1ccc(-c2nnc(-c3nsc4ccccc34)o2)cc1 , its growth inhibition was -14.1

// sample CCOC(=O)C1(C(=O)OCC)CCC(C(OC)OC)C(CC(=O)OC)C1 (stereo unspecified) , its growth inhibition was 16.4

// sample OC1CCCCC2CC2C1O (stereo unspecified) , its growth inhibition was -5.65

// sample O=C1CSC(=S)N1N1C(=O)CSC1=S , its growth inhibition was -12.4

// sample O=C1CCC(=O)N1CC1CC2CCC1C2 (stereo unspecified) , its growth inhibition was 36

// sample CC(CC(=O)Nc1ccccc1)C(=O)O (stereo unspecified) , its growth inhibition was 2.55

// sample CNN=C(C)C , its growth inhibition was -19.3

// sample COc1cc(/C=C2/C(=O)N(C(=O)c3ccc(Cl)cc3)N=C2C)cc(OC)c1OC , its growth inhibition was 39

// sample C#CCOC(=O)C(N)CS (stereo unspecified) , its growth inhibition was -13.7

// sample COc1ccc(S(=O)(=O)c2ccc(F)cc2)cc1 , its growth inhibition was -21.4

---

assay: NCI Yeast Anticancer Drug Screen. Data for the sgs1 mgt1 strain (AID 161);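 further: 0% = growth of cultures given vehicle only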; conditions: S. cerevisiae sgs1 mgt1 strain, at 50.0 µM, stronger effect = higher value
About 79,000 compounds went through this panel and 15% of them were active in at least one assay; those are over-represented in the sample as a whole. Activity calls are given as the source filed them. No stated cut-off is given here; in the data, active means growth inhibition above about 70%; inactive means the rest.
measuredAttribute: growth inhibition

Solved cases below.
CC(=O)Oc1c2oc3cc(O)c(O)cc3c2c(OC(C)=O)c2oc3cc(O)c(O)cc3c12; -1.15% (inactive)
Cc1cccc(C[N+](C)(C)CCO)c1C; 3.4% (inactive)
CCN(CC)CCOC(c1ccccc1)c1ccccc1; -1.2% (inactive)
CCOc1ccc(-c2oc(/C=N/NS(=O)(=O)c3ccc(C)cc3)c([N+](=O)[O-])c2-c2ccc(OCC)cc2)cc1; 64% (inactive)
CCCC(CCC)(CCC)CCN(C)C; -14.9% (inactive)
NC(=O)c1ccccc1NC(=O)C(=O)Cc1nc2ccccc2[nH]c1=O; 11.7% (inactive)
CSc1ccc(NC(=O)Nc2ccc(Nc3ccccc3)cc2)cc1; 15.1% (inactive)
Cc1cc2c3ccccc3n(C)c2c2c1C(=O)C=CC2=O; 20.9% (inactive)
O/N=C(/CC(O)(c1ccccc1)c1ccccc1)c1ccccc1; 7.8% (inactive)
Cc1ccc(C(C)(CCC(=O)O)c2ccc(C)o2)o1; 7.35% (inactive)

Then there is this molecule:
// sample Cc1ccc(NC(=O)Nc2ccc(C)cc2)cc1 , its growth inhibition was -12.8% (inactive)

---

assay: NCI Yeast Anticancer Drug Screen. Data for the sgs1 mgt1 strain (AID 161);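 further: 0% = growth of cultures given vehicle only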; settings: S. cerevisiae sgs1 mgt1 strain, at 50.0 µM, stronger effect = higher value
About 79,000 compounds went through this panel and 15% of them were active in at least one assay; those are over-represented in the sample as a whole.
A collection of compounds and their measured growth inhibition
Only the number, expressed in %, is required.

CSc1nc(NC2OC(COC(C)=O)C(OC(C)=O)C(OC(C)=O)C2OC(C)=O)c2c(n1)OCC2=O (stereo unspecified); -38
O=P(c1ccccc1)(c1ccccc1)C(O)c1ccncc1 (stereo unspecified); -0.15
O=C(CC(C(=O)c1cccs1)c1ccsc1)c1ccc(Cl)s1 (stereo unspecified); -11.1
Cc1nn(C)c(C#N)c1[N+](=O)[O-]; -36.3
c1ccc2cc(N=Nc3cccc4ccccc34)ccc2c1; 1.15

Then there is this compound:
// sample CCOCCC(O)CC (stereo unspecified) , its growth inhibition was -4.9

---

experiment: NCI Yeast Anticancer Drug Screen. Data for the mlh1 rad18 strain (AID 175); conditions: S. cerevisiae mlh1 rad18 strain growth inhibition; at 50.0 µM
About 79,000 compounds went through this panel and 15% of them were active in at least one assay; those are over-represented in the sample as a whole. Activity calls are given as the source filed them. Cut-off read from the data, not from the text of the source: active = growth inhibition above about 70%; inactive = the rest.
Hi there, use one of these labels in your reply, thanks! yes (active), no (inactive)

Take a look at these entries with their results.
Cc1ccc(S(=O)(=O)N/N=C/c2cc([N+](=O)[O-])ccc2O)cc1; no
O=c1[nH]c(-c2ccccc2)nc(-c2ccccc2)c1Cc1cc2c(cc1O)OCC2; no
O=C(O)c1ccc(CS(=O)c2ccccc2)c([N+](=O)[O-])c1 (configuration not stated); no
CC(c1ccc(O)cc1)c1cc2c(cc1OCCO)OCO2 (configuration not stated); yes
CC(=O)c1cc(CC2Cc3cc4c(cc3C2=O)CCC4)cc2c1CCC2 (configuration not stated); no

Request: In this assay, the call recorded for COC(=O)NC(C(F)(F)F)(C(F)(F)F)P1(=O)OCCCO1 was what?
Result: no

Request: In this assay, the call recorded for C=C(CC)C(=O)c1ccc(OCC(=O)O)c(Cl)c1Cl was what?
Result: no

Request: In this assay, the call recorded for O=C(Nc1ccccc1F)OCCCl was what?
Result: no

Request: In this assay, the call recorded for N#CC1CCCC/C1=N/NC(N)=O (configuration not stated) was what?
Result: no

Request: In this assay, the call recorded for Cc1cc(C)n2nc3c4ccsc4ncc3c2n1 was what?
Result: no

Request: In this assay, the call recorded for Fc1ccc(F)c(C2SCc3nc4ccccc4n32)c1 (configuration not stated) was what?
Result: no

Request: In this assay, the call recorded for Cc1ccc(NC(=S)N/C=C(\c2ccccc2)S(=O)Cc2ccccc2)c(C)c1 (configuration not stated) was what?
Result: no

---

A collection of compounds and their measured growth inhibition
assay: NCI Yeast Anticancer Drug Screen. Data for the rad50 strain (AID 155);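 further: 0% = growth of vehicle-only cultures of the same strain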; settings: S. cerevisiae rad50 strain growth inhibition; at 50.0 µM; stronger effect = higher value
About 79,000 compounds went through this panel and 15% of them were active in at least one assay; those are over-represented in the sample as a whole.
Only the number, expressed in %, is required.

Solved cases below.
COC(=O)C(=O)C(C(=O)C(=O)Nc1cc(C)ccc1C)c1nc2ccccc2[nH]c1=O (configuration not stated); 13
COc1ccc(C(C)=O)c(OC(C)=O)c1OC(C)=O; 4.05
C[C@]12CC[C@@H]3c4ccc(OP(=O)(O)O)cc4CC[C@H]3[C@@H]1CCC2=O; -7
O=C(/C=C/c1ccccc1)NN1CCOCC1; 13.5
CCCCCCCCCCCCCCCCCC1=NCC(C)O1 (configuration not stated); 4.6

// sample C[C@@]12CCC[C@H]1[C@@H]1CC=C3C[C@@H](S)CC[C@]3(C)[C@H]1CC2 , its growth inhibition was -6.75

// sample CCCC(O)C(C)C(C)O (configuration not stated) , its growth inhibition was -28.5

// sample CN(N=O)C(=O)NC(CCCCNC(=O)OCc1ccccc1)C(=O)OCc1ccccc1 (configuration not stated) , its growth inhibition was 5.95

// sample OCCCCCCO , its growth inhibition was -2.55

// sample O=S(NOCc1ccccc1)c1ccccc1 (configuration not stated) , its growth inhibition was 13.3

// sample Cc1ccc(C(C)C)cc1NC(=O)c1cccc([N+](=O)[O-])c1 , its growth inhibition was -8.4

// sample C[C@H](OCc1ccccc1)C(=O)N1CCS(=O)(=O)N2CCC[C@@H]2C1=O , its growth inhibition was 5.05
